# Test system: mutant D
# measurementDescription: Antiviral spectrum, fold resistance towards mutant D
# Type: cell-based
# conditionInfo: FR=IC50(mutant strain)/IC50(HIV-1 strain LAI)
observationType: FR towards mutant D

1. CC(C)CN(C[C@@H](O)[C@H](Cc1ccccc1)NC(=O)OCc1cccnc1)S(=O)(=O)c1ccc2nc(N)[nH]c2c1 [Compound 54]
0.46

Hi there! I need FR towards mutant D for each item below, if you can.
1. CC(C)CN(C[C@@H](O)[C@H](Cc1ccccc1)NC(=O)OCc1cncs1)S(=O)(=O)c1ccc2nc(N)[nH]c2c1 [Compound 57]
2. CC(C)CN(CC(O)C(Cc1ccccc1)NC(=O)OC1COC2OCCC12)S(=O)(=O)c1ccc2nc(NC(=O)OCCN(C)C)[nH]c2c1 (stereo not drawn) [Compound 48]
3. COC(=O)Nc1nc2ccc(S(=O)(=O)N(CC(C)C)C[C@@H](O)[C@H](Cc3ccccc3)NC(=O)c3ccc(N)cc3C)cc2[nH]1 [Compound 22]
4. COc1ccc(C(=O)Nc2nc3ccc(S(=O)(=O)N(CC(C)C)C[C@@H](O)[C@H](Cc4ccccc4)NC(=O)COc4c(C)cccc4C)cc3[nH]2)cc1 [Compound 37]
5. COC(=O)Nc1nc2ccc(S(=O)(=O)N(CC(C)C)C[C@@H](O)[C@H](Cc3ccccc3)NC(=O)COc3c(C)cccc3C)cc2[nH]1 [Compound 6]

1. 0.34
2. 0.35
3. 0.71
4. 1.9
5. 2.1

###

# Test system: HIV-1 strain LAI
# measurementDescription: Cellular anti-HIV assay, MT4 cells, MTT readout, wild type HIV-1 strain LAI
# Format: cell-based
# conditionInfo: Table 4; wild type HIV-LAI strain
observationType: WT (pIC50 against wild type HIV-LAI strain)
One number for each entry.

Some solved entries appear below for comparison.
1. CC(C)CN(C[C@@H](O)[C@H](Cc1ccccc1)NC(=O)OCc1cccnc1)S(=O)(=O)c1ccc2nc[nH]c2c1
7.0
2. CC(C)CN(CC(O)C(Cc1ccccc1)NC(=O)OC1COC2OCCC12)S(=O)(=O)c1ccc2ncn(Cc3ccncc3)c2c1 (stereo not shown)
7.5
3. CC(C)CN(C[C@@H](O)[C@H](Cc1ccccc1)NC(=O)OCc1cncs1)S(=O)(=O)c1ccc2ncn(CCc3ccccc3)c2c1
7.0
4. CC(C)CN(C[C@@H](O)[C@H](Cc1ccccc1)NC(=O)OC(C)(C)C)S(=O)(=O)c1ccc2ncn(CCc3ccccc3)c2c1
6.4
5. CC(C)CN(C[C@@H](O)[C@H](Cc1ccccc1)NC(=O)OC1COC2OCCC12)S(=O)(=O)c1ccc2nc(NC(=O)NCCN(C)C)[nH]c2c1 (stereo partly shown)
5.6

Hi there! I need WT (pIC50 against wild type HIV-LAI strain) for each item below, if you can.
1. CC(C)CN(C[C@@H](O)[C@H](Cc1ccccc1)NC(=O)O[C@H]1CCOC1)S(=O)(=O)c1ccc2nc(N)[nH]c2c1
2. COC(=O)Nc1nc2ccc(S(=O)(=O)N(CC(C)C)C[C@@H](O)[C@H](Cc3ccccc3)NC(=O)COc3c(C)cc(CN)cc3C)cc2[nH]1

[6.0, 7.0]

Hi there! I need WT (pIC50 against wild type HIV-LAI strain) for each item below, if you can.
1. CC(C)CN(C[C@@H](O)[C@H](Cc1ccccc1)NC(=O)OC(C)(C)C)S(=O)(=O)c1ccc2nc(N)n(Cc3ccccc3)c2c1
2. Cc1cccc(C)c1OCC(=O)N[C@@H](Cc1ccccc1)[C@H](O)CN(CC(C)C)S(=O)(=O)c1ccc2ncn(C)c2c1
3. CC(C)CN(C[C@@H](O)[C@H](Cc1ccccc1)NC(=O)OC1COC2OCCC12)S(=O)(=O)c1ccc2nc[nH]c2c1 (stereo partly shown)
4. Cc1cccc(C)c1OCC(=O)N[C@@H](Cc1ccccc1)[C@H](O)CN(CC(C)C)S(=O)(=O)c1ccc2ncn(CCc3ccccc3)c2c1
5. CC(C)CN(C[C@@H](O)[C@H](Cc1ccccc1)NC(=O)O[C@H]1CCOC1)S(=O)(=O)c1ccc2nc(NC(=O)NCCN(C)C)[nH]c2c1
6. CC(C)CN(C[C@@H](O)[C@H](Cc1ccccc1)NC(=O)O[C@H]1CCOC1)S(=O)(=O)c1ccc2nc[nH]c2c1

1. 6.9
2. 7.2
3. 6.9
4. 6.4
5. 6.1
6. 7.1

###

# Tested on: mutant A
# Type: cell-based
# conditionInfo: FR=IC50(mutant strain)/IC50(HIV-1 strain LAI)
Could you please mark Criterion met for values of FR value towards mutant A below 9 and Criterion not met for values at or above it?

Study these solved cases before continuing.
1. CC(C)CN(CC(O)C(Cc1ccccc1)NC(=O)OC1COC2OCCC12)S(=O)(=O)c1ccc2nc(NC(=O)OCCN(C)C)[nH]c2c1 (stereo not shown) [Compound 48]
Criterion met
2. CC(C)CN(C[C@@H](O)[C@H](Cc1ccccc1)NC(=O)OCc1cncs1)S(=O)(=O)c1ccc2ncn(CCc3ccccc3)c2c1 [Compound 34]
Criterion not met

hey, is FR value towards mutant A for CC(C)CN(C[C@@H](O)[C@H](Cc1ccccc1)NC(=O)OC1COC2OCCC12)S(=O)(=O)c1ccc2nc(N)[nH]c2c1 (stereo partly shown) [Compound 59] lower than 9 or not?
Criterion met

Then this compound: CC(=O)Nc1nc2ccc(S(=O)(=O)N(CC(C)C)C[C@@H](O)[C@H](Cc3ccccc3)NC(=O)COc3c(C)cccc3C)cc2[nH]1 [Compound 9]
Criterion met

Then this compound: CC(C)CN(C[C@@H](O)[C@H](Cc1ccccc1)NC(=O)OC(C)(C)C)S(=O)(=O)c1ccc2ncn(CCc3ccccc3)c2c1 [Compound 43]
Criterion not met

Then this compound: CC(C)CN(C[C@@H](O)[C@H](Cc1ccccc1)NC(=O)OCc1cncs1)S(=O)(=O)c1ccc2ncn(C)c2c1 [Compound 33]
Criterion not met

Then this compound: CC(C)CN(C[C@@H](O)[C@H](Cc1ccccc1)NC(=O)O[C@H]1CO[C@H]2OCC[C@H]21)S(=O)(=O)c1ccc2nc(NCCN3CCCC3)n(CCc3ccccc3)c2c1 [Compound 40]
Criterion not met

Then this compound: CC(C)CN(CC(O)C(Cc1ccccc1)NC(=O)OC1COC2OCCC12)S(=O)(=O)c1ccc2nc(N)n(C)c2c1 (stereo not shown) [Compound 41]
Criterion met

Then this compound: CC(C)CN(C[C@@H](O)[C@H](Cc1ccccc1)NC(=O)O[C@H]1CO[C@H]2OCC[C@H]21)S(=O)(=O)c1ccc2ncn(Cc3ccccc3)c2c1 [Compound 1]
Criterion not met

Then this compound: Cc1cccc(C)c1OCC(=O)N[C@@H](Cc1ccccc1)[C@H](O)CN(CC(C)C)S(=O)(=O)c1ccc2nc[nH]c2c1 [Compound 29]
Criterion not met

###

# System: HIV-1 strain LAI
# measurementDescription: Cellular anti-HIV assay, MT4 cells, MTT readout, wild type HIV-1 strain LAI
# Assay type: cell-based
# conditionInfo: Table 4; wild type HIV-LAI strain
observationType: WT (pIC50 against wild type HIV-LAI strain)
Numbers only.

1) COC(=O)Nc1nc2ccc(S(=O)(=O)N(CC(C)C)C[C@@H](O)[C@H](Cc3ccccc3)NC(=O)COc3c(C)cc(N(C)C)cc3C)cc2[nH]1 [Compound 19]
7.5
2) Cc1cccc(C)c1OCC(=O)N[C@@H](Cc1ccccc1)[C@H](O)CN(CC(C)C)S(=O)(=O)c1ccc2ncn(CC(C)C)c2c1 [Compound 45]
6.3

Hi there! I need WT (pIC50 against wild type HIV-LAI strain) for each item below, if you can.
1. Cc1c(N)cccc1C(=O)N[C@@H](Cc1ccccc1)[C@H](O)CN(CC(C)C)S(=O)(=O)c1ccc2nc[nH]c2c1 [Compound 46]
2. CC(C)CN(C[C@@H](O)[C@H](Cc1ccccc1)NC(=O)O[C@H]1CCOC1)S(=O)(=O)c1ccc2ncn(CCc3ccccc3)c2c1 [Compound 15]
3. COC(=O)Nc1nc2ccc(S(=O)(=O)N(CC(C)C)C[C@@H](O)[C@H](Cc3ccccc3)NC(=O)c3ccc(N)cc3C)cc2[nH]1 [Compound 22]

[6.4, 7.7, 7.4]

Write down the reported WT (pIC50 against wild type HIV-LAI strain) of COC(=O)Nc1nc2ccc(S(=O)(=O)N(CC(C)C)C[C@@H](O)[C@H](Cc3ccccc3)NC(=O)COc3c(C)cccc3C)cc2[nH]1 [Compound 6] , test system: HIV-1 strain LAI.
8.6

###

# System: mutant D
# measurementDescription: Antiviral spectrum, fold resistance towards mutant D
# Format: cell-based
# conditionInfo: FR=IC50(mutant strain)/IC50(HIV-1 strain LAI)
Provide the recorded FR towards mutant D for the entries that follow.
Numbers only.

Hi there! I need FR towards mutant D for each item below, if you can.
1. CC(=O)Nc1nc2ccc(S(=O)(=O)N(CC(C)C)C[C@@H](O)[C@H](Cc3ccccc3)NC(=O)COc3c(C)cccc3C)cc2[nH]1
2. Cc1nc2ccc(S(=O)(=O)N(CC(C)C)C[C@@H](O)[C@H](Cc3ccccc3)NC(=O)O[C@H]3CO[C@H]4OCC[C@H]43)cc2n1Cc1ccccc1
3. CC(C)CN(C[C@@H](O)[C@H](Cc1ccccc1)NC(=O)OC1COC2OCCC12)S(=O)(=O)c1ccc2nc(NC(=O)NCCN(C)C)[nH]c2c1 (stereo partly drawn)

1: 2.4; 2: 6.3; 3: 0.32
